So I've got a bunch of molecules here, and I need their MIC90 values.
Tested on: Moraxella catarrhalis
test_protocol: In Vitro Anti Bacterial Activity (MIC90) against 90% of tested clinical Isolates of Branhamella catarrhalis(27)
Assay type: functional
One number for each entry, in µg/mL.

# batch: return MIC90 for each of the 5 molecules below
1. C[C@@H](O)[C@H]1C(=O)N2C(C(=O)O)=C(CN(C)[C@@H](C)C(N)=O)S[C@H]12
2. C[C@@H](O)[C@H]1C(=O)N2C(C(=O)O)=C(CN3CCC[C@@H]3C(N)=O)S[C@H]12
3. C[C@@H](O)[C@H]1C(=O)N2C(C(=O)O)=C(CN3C[C@H](O)C[C@H]3C(N)=O)S[C@H]12
4. C[C@@H](O)[C@H]1C(=O)N2C(C(=O)O)=C(CN(C)CC(N)=O)S[C@H]12
5. C[C@@H](O)[C@H]1C(=O)N2C(C(=O)O)=C(CN3CCC[C@H]3C(N)=O)S[C@H]12

**A:**
1. 0.5
2. 2
3. 1
4. 0.25
5. 0.25
